Target: h12/15-LOX (Homo sapiens (Human), UniProt P16050)
Sequence (P16050 whole entry): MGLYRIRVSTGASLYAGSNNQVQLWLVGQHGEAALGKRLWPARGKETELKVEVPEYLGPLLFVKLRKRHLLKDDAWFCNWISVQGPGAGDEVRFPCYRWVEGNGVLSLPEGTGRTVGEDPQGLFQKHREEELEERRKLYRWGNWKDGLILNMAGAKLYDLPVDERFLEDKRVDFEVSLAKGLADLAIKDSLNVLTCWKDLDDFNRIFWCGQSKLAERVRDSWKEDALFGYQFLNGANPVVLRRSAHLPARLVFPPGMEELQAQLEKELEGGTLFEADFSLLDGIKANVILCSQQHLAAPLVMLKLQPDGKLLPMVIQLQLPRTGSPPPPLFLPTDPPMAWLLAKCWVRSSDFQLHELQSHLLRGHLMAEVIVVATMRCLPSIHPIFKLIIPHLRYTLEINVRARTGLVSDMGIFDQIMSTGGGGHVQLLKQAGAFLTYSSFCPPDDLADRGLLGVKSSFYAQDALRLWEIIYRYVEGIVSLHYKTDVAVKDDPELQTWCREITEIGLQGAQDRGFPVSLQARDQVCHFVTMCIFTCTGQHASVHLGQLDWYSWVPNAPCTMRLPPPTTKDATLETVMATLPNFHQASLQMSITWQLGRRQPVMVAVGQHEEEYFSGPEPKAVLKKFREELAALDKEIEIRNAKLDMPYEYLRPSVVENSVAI
Experiment: 12/15-LOX enzyme inhibition IC50 assay (Examples 1 and 2)
Format: biochemical
Conditions: h12/15-LOX; read-out: Max % inhibition
Where a name gives a salt, the structure may show the parent alone.
Tag: Satisfied if measured Emax is not below 90%, Not satisfied if it is.

molecule=N#Cc1nc(-c2cc(Cl)cc(Cl)c2Cl)oc1NCCCCCO grouplabel="Not satisfied"
molecule="CN(C)CCCCC(=O)N(C)c1oc(-c2cc(Cl)cc(Cl)c2Cl)nc1C#N [Compound 62, hydrochloride]" grouplabel=Satisfied
molecule=CNc1oc(-c2cc(Cl)cc(Cl)c2OC(F)F)nc1C#N grouplabel="Not satisfied"
molecule=N#Cc1nc(-c2cc(Cl)cc(Cl)c2Cl)oc1NCCOCCOCC(F)(F)F grouplabel=Satisfied
molecule=CNc1oc(-c2ccc(Cl)c(Cl)c2Cl)nc1C#N grouplabel="Not satisfied"
molecule=N#Cc1nc(-c2cc(Cl)cc(Cl)c2Cl)oc1NCCOCCOc1ccnnc1 grouplabel="Not satisfied"
molecule=N#Cc1nc(-c2cc(Cl)cc(Cl)c2OC(F)F)oc1NCCOCCO grouplabel=Satisfied
molecule=COc1cc(OCCOCCNc2oc(-c3cc(Cl)cc(Cl)c3Cl)nc2C#N)ccn1 grouplabel="Not satisfied"
molecule=N#Cc1nc(-c2cc(Cl)cc(Cl)c2Cl)oc1NCCOCCOCCF grouplabel=Satisfied
molecule=CNc1oc(-c2cc(C)cc(Cl)c2Cl)nc1C#N grouplabel="Not satisfied"
molecule=N#Cc1nc(-c2cc(Cl)cc(Cl)c2Cl)oc1NCC#CCOCc1ccccc1 grouplabel=Satisfied
molecule=N#Cc1nc(-c2cc(Cl)cc(Cl)c2Cl)oc1NCCOCCOc1ccnc(F)c1 grouplabel="Not satisfied"
molecule=COCCOCCNc1oc(-c2cc(Cl)cc(Cl)c2F)nc1C#N grouplabel=Satisfied
molecule=CNc1oc(-c2cc(Cl)cc(OC)c2Cl)nc1C#N grouplabel="Not satisfied"
molecule=COCCOCCNc1oc(-c2cc(Cl)cc(C(F)(F)F)c2Cl)nc1C#N grouplabel=Satisfied
molecule=N#Cc1nc(-c2cc(Cl)cc(Cl)c2Cl)oc1NCCOCCOc1cncnc1 grouplabel="Not satisfied"
molecule=Cc1c(Cl)cc(Cl)cc1-c1nc(C#N)c(NCCOCCO)o1 grouplabel=Satisfied
molecule=COCCOCCNc1oc(-c2cc(Cl)cc(Cl)c2C)nc1C#N grouplabel=Satisfied
molecule=CNc1oc(-c2cc(C#N)cc(Cl)c2Cl)nc1C#N grouplabel=Satisfied
molecule=Cc1cc(OCCOCCNc2oc(-c3cc(Cl)cc(Cl)c3Cl)nc2C#N)cc(C)n1 grouplabel="Not satisfied"
molecule=N#Cc1nc(-c2cc(Cl)cc(Cl)c2Cl)oc1NCC#CCOCc1ccncc1 grouplabel="Not satisfied"
molecule=COCCOCCNc1oc(-c2cc(C)cc(Cl)c2Cl)nc1C#N grouplabel=Satisfied

* * *

Molecular target: h12/15-LOX (Homo sapiens (Human), UniProt P16050)
Test: 12/15-LOX enzyme inhibition IC50 assay (Examples 1 and 2)
Protocol: Enzyme was then added to the cuvettes. […] The % inhibition for each test compound concentration were calculated as follows: […]
Structures can show the parent of a compound that is named as a salt.
Entries and their log10 of IC50 values follow.
measurementName: log10 of IC50 (log10 of the value in µM)

compound=CC(C)OCCOCCNc1oc(-c2cc(Cl)cc(Cl)c2Cl)nc1C#N testtarget="h12/15-LOX (Homo sapiens (Human), UniProt P16050)" measuredresult=-0.18
compound=COCCNc1oc(-c2cc(Cl)cc(Cl)c2C)nc1C#N testtarget="h12/15-LOX (Homo sapiens (Human), UniProt P16050)" measuredresult=-0.77
compound=N#Cc1nc(-c2cc(Cl)cc(Cl)c2Cl)oc1NCCOCCOc1ccnnc1 testtarget="h12/15-LOX (Homo sapiens (Human), UniProt P16050)" measuredresult=0.66
compound=N#Cc1nc(-c2cc(Cl)cc(Cl)c2Cl)oc1NCCOCCO testtarget="h12/15-LOX (Homo sapiens (Human), UniProt P16050)" measuredresult=0.18
compound=N#Cc1nc(-c2cc(Cl)cc(Cl)c2Cl)oc1NC/C=C/COCc1ccccc1 testtarget="h12/15-LOX (Homo sapiens (Human), UniProt P16050)" measuredresult=-0.64
compound="CN(C)CCCCC(=O)N(C)c1oc(-c2cc(Cl)cc(Cl)c2Cl)nc1C#N [Compound 62, hydrochloride]" testtarget="h12/15-LOX (Homo sapiens (Human), UniProt P16050)" measuredresult=0.92
compound=CNc1oc(-c2cc(Cl)cc(C(F)(F)F)c2Cl)nc1C#N testtarget="h12/15-LOX (Homo sapiens (Human), UniProt P16050)" measuredresult=-1.09
